Readings of Relative binding activity for the listed binders
Target: T1, recombinant human soluble gpNMB (recombinant human gpNMB-FLAG-His) (human, UniProt Q14956 23-498)
T1 sequence: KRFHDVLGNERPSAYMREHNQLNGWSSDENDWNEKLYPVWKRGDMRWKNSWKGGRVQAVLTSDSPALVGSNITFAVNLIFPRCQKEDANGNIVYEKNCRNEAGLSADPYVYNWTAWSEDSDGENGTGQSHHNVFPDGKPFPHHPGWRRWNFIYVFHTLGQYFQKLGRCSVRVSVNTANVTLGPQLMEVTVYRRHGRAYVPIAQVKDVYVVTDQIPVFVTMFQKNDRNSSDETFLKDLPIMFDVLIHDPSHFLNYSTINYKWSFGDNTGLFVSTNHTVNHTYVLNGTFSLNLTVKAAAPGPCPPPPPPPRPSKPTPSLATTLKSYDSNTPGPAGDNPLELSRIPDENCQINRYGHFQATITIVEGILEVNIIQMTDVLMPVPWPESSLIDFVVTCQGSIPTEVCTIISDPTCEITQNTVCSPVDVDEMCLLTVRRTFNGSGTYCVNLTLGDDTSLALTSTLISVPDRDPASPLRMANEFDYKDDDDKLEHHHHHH
Experiment: antigen ELISA, vs hGPN06-1_H1L1
I only need the number, thanks.

[[record]]
binder = "hGPN06-1_H1L1 VH S56A (antibody, V domains shown) VH: QVQLVQSGAEVKKPGASVKVSCKASGYTFTDNWMGWVKQRPGQGLEWIGAIDPSDAFTNYNQNFKGRVTMTVDTSISTAYMELSRLRSDDSAVYFCTRSGYYGSPKLGGDYWGQGTLVTVSS VL: EIVLTQSPSSLSASVGDRVTITCSASSSISYMHWYQQKSGTAPKLLIYSTSNLASGVPSRFSGSGSGTDFTFTISSLQPEDAATYYCHQWNSYPCTFGGGTKLEIK"
reported_value = 1.14


Fill in: Relative binding activity of hGPN06-1_H1L1 VH Q62A (antibody, V domains shown) VH: QVQLVQSGAEVKKPGASVKVSCKASGYTFTDNWMGWVKQRPGQGLEWIGAIDPSDSFTNYNANFKGRVTMTVDTSISTAYMELSRLRSDDSAVYFCTRSGYYGSPKLGGDYWGQGTLVTVSS VL: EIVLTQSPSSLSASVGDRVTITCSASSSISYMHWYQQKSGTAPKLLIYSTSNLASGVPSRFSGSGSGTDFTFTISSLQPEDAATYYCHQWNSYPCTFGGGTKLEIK is ___
1.14
